Values compiled from ChEMBL document CHEMBL4732197.

TARGET OR SYSTEM: Human immunodeficiency virus type 1 reverse transcriptase (Human immunodeficiency virus 1, UniProt Q72547)
ATTRIBUTE MEASURED: pIC50
In textbook form, pIC50 equals minus log to base ten of the concentration in mol/L.

Please look at this compound and report its pIC50: `Cc1cc(/C=C/C#N)cc(C)c1Oc1nc(Nc2ccc(N3CCN(S(N)(=O)=O)CC3)cc2)nc2ccsc12`
6.67

Please look at this compound and report its pIC50: Cc1cc(/C=C/C#N)cc(C)c1Oc1nc(Nc2ccc(N3CCCC(N)C3)cc2)nc2sccc12 (stereo not drawn)
6.02

Please look at this compound and report its pIC50: Cc1cc(/C=C/C#N)cc(C)c1Oc1nc(Nc2ccc(N3CCCC(NS(C)(=O)=O)C3)cc2)nc2ccsc12 (stereo not drawn)
6.11

Please look at this compound and report its pIC50: Cc1cc(/C=C/C#N)cc(C)c1Oc1nc(Nc2ccc(N3CCCC(NS(C)(=O)=O)C3)cc2)nc2sccc12 (stereo not drawn)
5.99

Please look at this compound and report its pIC50: `Cc1cc(/C=C/C#N)cc(C)c1Oc1nc(Nc2ccc(N3CCN(S(C)(=O)=O)CC3)cc2)nc2ccsc12`
6.68

Please look at this compound and report its pIC50: `Cc1cc(/C=C/C#N)cc(C)c1Oc1nc(Nc2ccc(N3CCNCC3)cc2)nc2ccsc12`
6.02

Please look at this compound and report its pIC50: Cc1cc(/C=C/C#N)cc(C)c1Oc1nc(Nc2ccc(N3CCCC(N)C3)cc2)nc2ccsc12 (stereo not drawn)
5.80

Please look at this compound and report its pIC50: `Cc1cc(/C=C/C#N)cc(C)c1Oc1nc(Nc2ccc(CN3CCN(S(C)(=O)=O)CC3)cc2)nc2ccsc12`
6.86
